This section lists AC50 readings for Kappa-type opioid receptor (Homo sapiens).
REPORTED_PROPERTY: AC50

COMPOUND	DATA_VALUE
O=C1NCCN1CCN1CCC(c2cn(-c3ccc(F)cc3)c3ccc(Cl)cc23)CC1	3.7 µM
CCC(C(=O)O)c1ccc(CC(C)C)cc1 (stereo unspecified)	> 30 µM
NC(N)=Nc1nc(CSCCC(N)=NS(N)(=O)=O)cs1	> 10 µM
CC(C(=O)O)c1ccc(C(=O)c2cccs2)cc1 (stereo unspecified)	> 10 µM
C#C[C@]1(O)CC[C@H]2[C@@H]3CCc4cc(O)ccc4[C@H]3CC[C@@]21C	> 10 µM
N[C@@H](C(=O)N[C@@H]1C(=O)N2C(C(=O)O)=C(Cl)CS[C@H]12)c1ccccc1 [CEFACLOR ANHYDROUS]	> 30 µM
CC(C)(C(=O)c1cccnc1)c1cccnc1	> 10 µM
COc1ccc(C(=O)NCc2ccc(OCCN(C)C)cc2)cc1OC [ITOPRIDE]	> 30 µM
CN(C)CCCN1c2ccccc2Sc2ccccc21	1.99 µM
C1=Cc2cccc(OCC3CNCCO3)c2C1 (stereo unspecified)	25 µM
CC[C@H](C)C(=O)O[C@H]1C[C@H](O)C=C2C=C[C@H](C)[C@H](CC[C@@H](O)C[C@@H](O)CC(=O)O)[C@H]21	> 10 µM

---

molecular target: 5-hydroxytryptamine receptor 2B (Homo sapiens, UniProt P41595); type: functional, cell-based; further: assay procedure not described here
Sequence (P41595 whole entry): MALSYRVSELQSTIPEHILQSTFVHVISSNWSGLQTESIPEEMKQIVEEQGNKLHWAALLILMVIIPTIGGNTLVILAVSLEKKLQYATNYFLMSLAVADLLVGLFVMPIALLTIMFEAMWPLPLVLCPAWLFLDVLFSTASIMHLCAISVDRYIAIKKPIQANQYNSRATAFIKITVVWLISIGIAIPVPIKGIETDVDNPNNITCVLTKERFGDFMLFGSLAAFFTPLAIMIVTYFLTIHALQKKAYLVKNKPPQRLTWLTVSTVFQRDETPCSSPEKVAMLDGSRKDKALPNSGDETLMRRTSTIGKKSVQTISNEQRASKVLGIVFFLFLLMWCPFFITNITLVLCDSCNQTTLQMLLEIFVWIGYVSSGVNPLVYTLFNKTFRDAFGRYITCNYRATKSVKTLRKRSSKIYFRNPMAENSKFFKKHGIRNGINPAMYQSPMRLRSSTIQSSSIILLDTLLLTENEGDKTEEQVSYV
Entries and their measured AC50 follow.
REPORTED_PROPERTY: AC50

COMPOUND	REPORTED_PROPERTY	DATA_VALUE
CC(C(O)c1ccc(O)cc1)N1CCC(Cc2ccccc2)CC1 (centres undefined)	AC50	2.3 µM
CCN1CCC[C@H]1CNC(=O)c1cc(S(N)(=O)=O)ccc1OC [LEVOSULPIRIDE]	AC50	> 10 µM
O=C1CCC(N2C(=O)c3ccccc3C2=O)C(=O)N1 (centres undefined) [THALIDOMIDE]	AC50	> 10 µM
COC(=O)C1=C(C)NC(C)=C(C(=O)OC(C)C)C1c1cccc2nonc12 (centres undefined)	AC50	> 10 µM

---

Entries and their measured AC50 follow.
target: Histamine H3 receptor (Homo sapiens); further: assay procedure not described here
Sequence (Q9Y5N1 whole entry): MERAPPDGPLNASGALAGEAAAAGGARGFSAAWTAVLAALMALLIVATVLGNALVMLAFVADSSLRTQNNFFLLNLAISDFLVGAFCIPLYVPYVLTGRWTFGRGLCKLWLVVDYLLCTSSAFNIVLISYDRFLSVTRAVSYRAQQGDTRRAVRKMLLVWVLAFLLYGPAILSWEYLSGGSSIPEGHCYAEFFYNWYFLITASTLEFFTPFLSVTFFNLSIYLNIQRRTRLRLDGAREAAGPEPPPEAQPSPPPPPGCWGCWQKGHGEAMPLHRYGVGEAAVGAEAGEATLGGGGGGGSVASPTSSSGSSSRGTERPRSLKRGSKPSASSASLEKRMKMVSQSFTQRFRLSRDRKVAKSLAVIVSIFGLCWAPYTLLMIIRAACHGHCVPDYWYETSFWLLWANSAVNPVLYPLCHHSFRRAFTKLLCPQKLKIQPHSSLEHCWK

COMPOUND	AC50
CCC(=O)O[C@H]1[C@H](O[C@@H]2[C@@H](C)[C@H](O[C@H]3C[C@@](C)(OC)[C@@H](O)[C@H](C)O3)[C@@H](C)C(=O)O[C@H](CC)[C@@](C)(O)[C@H](O)[C@@H](C)C(=O)[C@H](C)C[C@@]2(C)O)O[C@H](C)C[C@@H]1N(C)C [ERYTHROMYCIN PROPIONATE]	> 30 µM
C[C@@H]1C[C@H]2[C@@H]3C[C@H](F)C4=CC(=O)C(Cl)=C[C@]4(C)[C@@]3(F)[C@@H](O)C[C@]2(C)[C@@]1(O)C(=O)CO	> 30 µM
CCOc1ccc(/C=C2\NCCc3cc(OCC)c(OCC)cc32)cc1OCC	> 30 µM
Cc1c(-c2ccccc2)oc2c(C(=O)OCCN3CCCCC3)cccc2c1=O [FLAVOXATE]	24.6 µM
COc1cc2c(cc1OC)[C@H]1C[C@@H](OC(=O)[C@@H](N)C(C)C)[C@H](CC(C)C)CN1CC2	> 30 µM
CN(C)c1ccc(C(=C2C=CC(=[N+](C)C)C=C2)c2ccc(N(C)C)cc2)cc1	4.71 µM
OC[C@@H](O)[C@@H](O)[C@H](O)[C@H](O)CO	> 30 µM
CS(=O)(=O)c1ccc([C@@H](O)[C@@H](CO)NC(=O)C(Cl)Cl)cc1	> 30 µM
COc1ccc2c(c1)OC(C)(C)C(c1ccccc1)C2c1ccc(OCCN2CCCC2)cc1 (stereo not drawn)	0.785 µM
C#C[C@]1(O)CC[C@H]2[C@@H]3CCc4cc(O)ccc4[C@H]3CC[C@@]21C	> 30 µM
CO/N=C(\C(=O)N[C@@H]1C(=O)N2C(C(=O)OCOC(=O)C(C)(C)C)=C(C)CS[C@H]12)c1csc(N)n1	> 30 µM
OCCN1CCN(CCCN2c3ccccc3C=Cc3ccccc32)CC1	19 µM
CN1C(=O)N(C)C2C1N(C)C(=O)N2C (stereo not drawn)	> 30 µM
O=C1c2c(O)c(=O)ccn2N([C@@H]2c3ccccc3SCc3c2ccc(F)c3F)[C@@H]2COCCN12	> 30 µM
O=C1CC[C@@]2(O)[C@H]3Cc4ccc(O)c5c4[C@@]2(CCN3CC2CC2)[C@H]1O5 [NALTREXONE]	> 30 µM
CN(CCOc1ccc(NS(C)(=O)=O)cc1)CCc1ccc(NS(C)(=O)=O)cc1 [DOFETILIDE]	> 30 µM
Cc1ccc(O)c2ncccc12	> 30 µM
CC1(C)O[C@@H]2C[C@H]3[C@@H]4C[C@H](F)C5=CC(=O)CC[C@]5(C)[C@H]4[C@@H](O)C[C@]3(C)[C@]2(C(=O)CO)O1 [FLURANDRENOLIDE]	> 30 µM
